All figures here come from patent US8378117B2.

For each record, write down the corresponding EC50.
# Measurement Target: CB1 receptor (Homo sapiens)
# Construct: expressed in transfected cells
# Protocol Description: cell-based
# Condition Details: SK-N-MC cells, forskolin induced β-galactosidase activity; read-out: CB1 Receptor Functional Agonist EC50

Report value: EC50, system: CB1 receptor (Homo sapiens), compound: C[C@H](NS(=O)(=O)/C=C/c1nn(-c2ccc(F)cc2F)c2c1CCCCC2Cc1ccc(F)cc1)c1ccccc1 (stereo partly shown) [Cpd 107]
19800 nM

Report value: EC50, system: CB1 receptor (Homo sapiens), compound: O=C(NN1CCOCC1)c1nn(-c2ccc(F)cc2F)c2c1CCCCC2Cc1cccc(F)c1 (stereo not shown) [Cpd 116]
300 nM

Report value: EC50, system: CB1 receptor (Homo sapiens), compound: CC12CCC(C1)C(C)(C)[C@H]2NC(=O)c1nn(C2CCCCC2)c2c1CCCCC2Cc1ccc(F)cc1 (stereo partly shown) [Cpd 58]
1400 nM

Report value: EC50, system: CB1 receptor (Homo sapiens), compound: O=C(N[C@H](CCO)c1ccccc1)c1n[nH]c2c1CCCC/C2=C\c1cccc(Cl)c1 [Cpd 250]
> 5000 nM

---

# Measurement Target: CB1 receptor (Homo sapiens)
# Construct: expressed in transfected cells
# Protocol Description: Binding assay for CB1 agonists or inverse agonists (SK-N-MC membranes, [3H]-CP-55,940)
# Condition Details: value shown is an average percent inhibition (footnote 5); concentration not given
# Experimental: The human CB1 and CB2 receptors were stably expressed in SK-N-MC cells transfected with pcDNA3 CB-1 (human) or pcDNA3 CB-2 (human). […] On the day of the assay, the pellet was thawed on ice and diluted in assay buffer (50 mM Tris-HCl, 5 mM MgCl2, 2.5 mM EDTA, 0.5 mg/mL fatty acid free bovine serum aldumin, pH 7.5). […] Non-specific binding was measured in wells containing WIN 55,212 (10 uM). […]
For each record, write down the corresponding CB1 receptor binding average percent inhibition.
Write it as a number; the unit % goes unstated.

Supply measured CB1 receptor binding average percent inhibition of COC(=O)[C@@H](Cc1ccc(F)cc1)NC(=O)c1nn(-c2ccc(Cl)cc2Cl)c2c1CCCC[C@@H]2Cc1cccc(F)c1 [Cpd 77] in your reply.
57

Supply measured CB1 receptor binding average percent inhibition of C[C@H](NS(=O)(=O)/C=C/c1nn(C2CCCCC2)c2c1CCCCC2Cc1cccc(F)c1)c1ccccc1 (some centres unmarked) [Cpd 75] in your reply.
77

Supply measured CB1 receptor binding average percent inhibition of COC(=O)[C@@H](Cc1ccc(O)cc1)NC(=O)c1nn(-c2ccc(Cl)cc2Cl)c2c1CCCCC2Cc1cccc(F)c1 (some centres unmarked) [Cpd 80] in your reply.
51

Supply measured CB1 receptor binding average percent inhibition of C[C@@H](NC(=O)c1nn(-c2ccc(Cl)cc2Cl)c2c1CCCC/C2=C\c1ccc(F)cc1)c1ccccn1 [Cpd 225] in your reply.
96

Supply measured CB1 receptor binding average percent inhibition of COC(=O)[C@@H](Cc1ccc(F)cc1)NC(=O)c1nn(-c2ccc(Cl)cc2Cl)c2c1CCCC[C@H]2Cc1cccc(F)c1 [Cpd 78] in your reply.
59

Supply measured CB1 receptor binding average percent inhibition of COC(=O)[C@@H](Cc1ccc(O)cc1)NC(=O)c1nn(C2CCCCC2)c2c1CCCCC2Cc1cccc(F)c1 (some centres unmarked) [Cpd 82] in your reply.
46

Supply measured CB1 receptor binding average percent inhibition of O=C(NN1CCCCC1)c1nn(-c2ccc(Cl)cc2Cl)c2c1CCCCC2Cc1cccc(F)c1 (centres unmarked) [Cpd 84] in your reply.
67

Supply measured CB1 receptor binding average percent inhibition of COC(=O)[C@@H](Cc1ccc(O)cc1)NC(=O)c1nn(C2CCCCC2)c2c1CCCCC2Cc1ccc(F)cc1 (some centres unmarked) [Cpd 83] in your reply.
90

---

# Measurement Target: CB1 receptor (Homo sapiens, UniProt P21554)
# Construct: expressed in transfected cells
# Sequence (P21554 whole entry): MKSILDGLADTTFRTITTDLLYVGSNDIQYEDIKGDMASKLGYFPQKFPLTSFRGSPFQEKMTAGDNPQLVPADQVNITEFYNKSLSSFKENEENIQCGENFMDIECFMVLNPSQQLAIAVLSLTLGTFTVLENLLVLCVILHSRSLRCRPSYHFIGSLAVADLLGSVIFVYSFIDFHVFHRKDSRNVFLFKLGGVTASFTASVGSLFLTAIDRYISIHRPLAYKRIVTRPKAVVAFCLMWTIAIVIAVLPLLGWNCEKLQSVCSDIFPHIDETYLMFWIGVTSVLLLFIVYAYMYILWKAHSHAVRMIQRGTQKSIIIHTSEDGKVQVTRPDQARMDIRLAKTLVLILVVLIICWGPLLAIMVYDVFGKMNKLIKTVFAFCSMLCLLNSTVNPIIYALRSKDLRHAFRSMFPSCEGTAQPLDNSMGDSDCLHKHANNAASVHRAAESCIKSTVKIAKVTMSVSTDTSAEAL
# Protocol Description: Modified binding assay, CB1 receptor in CHO cells, [3H]CP 55940
# Condition Details: [3H]CP 55940 0.5 nM, 120 minutes at 37° C.
For each record, write down the corresponding pIC50.
pIC50 is defined as minus the log10 of a concentration measured in mol/L.

Supply measured pIC50 of O=C(N[C@H](CO)c1ccccc1)c1n[nH]c2c1CCCCC2Cc1cccc(Cl)c1 (stereo partly shown) [Cpd 164] in your reply.
6.06

Supply measured pIC50 of O=C(N[C@H](CO)c1ccccc1)c1n[nH]c2c1CCCCC2Cc1cccc(Cl)c1 (single isomer, unassigned) [Cpd 230] in your reply.
6.43

---

# Measurement Target: CB1 receptor (Homo sapiens, UniProt P21554)
# Construct: expressed in transfected cells
# Protocol Description: Binding assay for CB1 agonists or inverse agonists (SK-N-MC membranes, [3H]-CP-55,940)
# Condition Details: read-out: CB1 receptor binding percent inhibition, test concentration 0.2 μM (footnote 2)
Readout Name: inhibition at 0.2 µM (%)
Write it as a number; the unit % goes unstated.

Supply measured inhibition at 0.2 µM of `COc1ccc(/C=C2\CCCCc3c(C(=O)N[C@@H](C)c4ccccc4)nn(-c4ccc(Cl)cc4Cl)c32)cc1` in your reply.
71

Supply measured inhibition at 0.2 µM of `Cn1nc(C(=O)N[C@@H](CO)c2ccccc2)c2c1/C(=C/c1cccc(F)c1)CCCC2` in your reply.
80

Supply measured inhibition at 0.2 µM of `C[C@@H](NC(=O)c1nn(-c2ccc(S(N)(=O)=O)cc2)c2c1CCCC/C2=C\c1ccc(Cl)cc1)C1CCCCC1` in your reply.
75

Supply measured inhibition at 0.2 µM of `CC(C)(NC(=O)c1nn(-c2ccc(Cl)cc2Cl)c2c1CCCC/C2=C\c1ccc(F)cc1)c1ccccc1` in your reply.
93

Supply measured inhibition at 0.2 µM of `O=C(NN1CCCCC1)c1nn(-c2ccncc2)c2c1CCCC/C2=C\c1ccc(Cl)cc1` in your reply.
21

Supply measured inhibition at 0.2 µM of `COC(=O)[C@H](Cc1ccc(F)cc1)NC(=O)c1n[nH]c2c1CCCC/C2=C\c1cccc(Cl)c1` in your reply.
35

Supply measured inhibition at 0.2 µM of C[C@@H](NC(=O)c1nn(C2CCCCC2)c2c1CCCCC2Cc1cccc(F)c1)c1ccccc1 (stereo partly shown) in your reply.
0

Supply measured inhibition at 0.2 µM of `O=C(NN1CCCCC1)c1nn(-c2cc(Cl)ccc2Cl)c2c1CCCC/C2=C\c1ccc(Cl)cc1` in your reply.
30

Supply measured inhibition at 0.2 µM of `C[C@@H](NC(=O)c1nn(-c2ccc(Cl)cc2Cl)c2c1CCCC/C2=C\c1ccc(F)cc1)C1CCCCC1` in your reply.
94

Supply measured inhibition at 0.2 µM of `COc1ccc(/C=C2\CCCCc3c(C(=O)NCc4ccccn4)nn(-c4ccc(Cl)cc4Cl)c32)cc1` in your reply.
76

Supply measured inhibition at 0.2 µM of `O=C(N[C@@H](CO)c1ccccc1)c1nn(-c2ccc(Cl)cc2Cl)c2c1CCCC/C2=C\c1ccc(F)cc1` in your reply.
37

Supply measured inhibition at 0.2 µM of `O=C(c1n[nH]c2c1CCCC/C2=C\c1ccc(Cl)cc1)N1CCCCC1` in your reply.
40

Supply measured inhibition at 0.2 µM of C[C@H](NS(=O)(=O)/C=C/c1n[nH]c2c1CCCCC2Cc1cccc(Cl)c1)c1ccccc1 (stereo partly shown) in your reply.
2

Supply measured inhibition at 0.2 µM of O=C(N[C@H](CO)c1ccccc1)c1n[nH]c2c1CCCCC2Cc1cccc(Cl)c1 (stereo partly shown) in your reply.
26

Supply measured inhibition at 0.2 µM of `COc1ccc(/C=C2\CCCCc3c(C(=O)N[C@H](CO)c4ccccc4)nn(-c4ccc(Cl)cc4Cl)c32)cc1` in your reply.
88

Supply measured inhibition at 0.2 µM of `O=C(Nc1ccccn1)c1nn(-c2ccc(Cl)cc2Cl)c2c1CCCC/C2=C\c1ccc(Cl)cc1` in your reply.
66

---

For each record, write down the corresponding log10(EC50).
# Measurement Target: CB1 receptor (Homo sapiens, UniProt P21554)
# Construct: expressed in transfected cells
# Protocol Description: cell-based
# Condition Details: CB1 Receptor Functional Agonist EC50, SK-N-MC cells, forskolin induced β-galactosidase activity
For clarity, the numbers are log10 values of EC50 expressed in nM.

Supply measured log10(EC50) of COC(=O)[C@@H](Cc1ccc(F)cc1)NC(=O)c1n[nH]c2c1CCCC/C2=C\c1ccc(Cl)cc1 [Cpd 247] in your reply.
0.90

Supply measured log10(EC50) of COC(=O)[C@H](Cc1ccc(F)cc1)NC(=O)c1n[nH]c2c1CCCC/C2=C\c1cccc(Cl)c1 [Cpd 240] in your reply.
3.20

Supply measured log10(EC50) of COC[C@@H](NC(=O)c1n[nH]c2c1CCCC[C@@H]2Cc1cccc(Cl)c1)c1ccccc1 (stereo in doubt) [Cpd 251] in your reply.
2.61

Supply measured log10(EC50) of COC[C@H](NC(=O)c1n[nH]c2c1CCCC[C@@H]2Cc1cccc(Cl)c1)c1ccccc1 (stereo in doubt) [Cpd 254] in your reply.
1.90

Supply measured log10(EC50) of Cn1nc(C(=O)N[C@@H](CO)c2ccccc2)c2c1/C(=C/c1cccc(F)c1)CCCC2 [Cpd 242] in your reply.
1.48

Supply measured log10(EC50) of C[C@H](NS(=O)(=O)/C=C/c1n[nH]c2c1CCCC/C2=C\c1ccc(Cl)cc1)c1ccccc1 [Cpd 237] in your reply.
3.23

Supply measured log10(EC50) of O=C(N[C@@H](CO)c1ccccc1)c1n[nH]c2c1CCCCC2Cc1cccc(Cl)c1 (stereo in doubt) [Cpd 229] in your reply.
1.78
